Population Mitotic Cells (%) listing for selected molecules.
System: U2OS
Test: Multiplex assay against U2OS
Format: toxicity, cell-based
Conditions: human, 12 h, 1 µM, compound concentration 1 uM, replicate 2
Give the quantity in %, number only.

Before answering, review these 3 worked examples.
molecule="CCn1c(-c2nonc2N)nc2cnc(Oc3cccc(NC(=O)c4ccc(OCCN5CCOCC5)cc4)c3)cc21 [GSK-269962A]" test_target=U2OS assay_result=80
molecule=CCOc1cc(N2CCC(O)CC2)ccc1Nc1ncc2c(n1)N(C1CCCC1)CCC(=O)N2C test_target=U2OS assay_result=50
molecule=O=C(O)c1ccc2cc(-c3ccc(O)c(C45CC6CC(CC(C6)C4)C5)c3)ccc2c1 test_target=U2OS assay_result=0

We next turn to a different molecule, shown below.
Q: Give reported Population Mitotic Cells (%) value for `CC(C)(C)c1cnc(CSc2cnc(NC(=O)C3CCNCC3)s2)o1`
Result: 85
